molecular target: binding of His-XIAP(BIR2)-avi fusion protein to GST-RIPK2 fusion protein (RIPK2/XIAP) (Homo sapiens, UniProt O43353); construct: made in house; host or cells: baculovirus infected Sf9 cells; assay: RIPK2-XIAP binding competition PPI assay (TR-FRET); conditions: RIPK2/XIAP binding competition PPI assay, Amax; read-out: PPI Amax bin
Sequence (O43353 1-310 limits assumed): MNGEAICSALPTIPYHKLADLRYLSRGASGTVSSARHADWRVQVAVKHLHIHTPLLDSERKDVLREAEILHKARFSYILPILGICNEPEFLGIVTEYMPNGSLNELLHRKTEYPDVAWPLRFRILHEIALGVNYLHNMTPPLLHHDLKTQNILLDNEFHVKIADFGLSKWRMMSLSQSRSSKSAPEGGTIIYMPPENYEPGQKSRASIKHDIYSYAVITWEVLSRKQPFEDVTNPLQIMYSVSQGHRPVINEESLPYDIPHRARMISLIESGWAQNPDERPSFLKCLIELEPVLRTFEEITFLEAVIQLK
Answer each item with its documented Emax.

Exam item: What measured Emax goes with `C[C@H](CO)COc1cn2ncc(-c3cc(Cl)c(N)nc3F)c2cc1S(=O)(=O)C(C)(C)C` ?
Marked response: > 80%

Exam item: // query Emax value for entry `COc1cc2ncc(-c3cnn4c(C)c(C)ccc34)n2cc1S(=O)(=O)C(C)(C)C`
Marked response: 55 to 80%

Exam item: Which measured Emax value corresponds to `COc1cc2ncc(-c3cccc(NS(=O)(=O)C4CNC4)c3)n2cc1S(=O)(=O)C(C)(C)C` ?
Marked response: > 80%

Exam item: For the molecule COc1cc2ncc(-c3cccc(NS(=O)(=O)C4CCN(C(=O)OC(C)(C)C)C4)c3)n2cc1S(=O)(=O)C(C)(C)C (centres unmarked) , what Emax is on record?
Marked response: > 80%

Exam item: Data request, read-out Emax, for `CC(C)(C)S(=O)(=O)c1cn2c(-c3cc(Br)c(N)nc3F)cnc2cc1OCCO`
Marked response: > 80%

Exam item: What does the record list as Emax for `COc1cc2ncc(-c3ccc4c(c3)c(C)nn4C)n2cc1S(=O)(=O)C(C)(C)C` ?
Marked response: < 30%

Exam item: I'd like to know its Emax. The molecule in question is `COc1cc2ncc(-c3cc(C)c(OC)c(NS(=O)(=O)c4cnn(C)c4)c3)n2cc1S(=O)(=O)C(C)(C)C`
Marked response: > 80%

Exam item: For the molecule `COc1cc2ncc(-c3cc(F)c(N)nc3F)n2cc1S(=O)(=O)N1CCOCC1` , what Emax is on record?
Marked response: > 80%

---

molecular target: GST-RIPK2 fusion protein (human RIPK2, amino acids 1-310) (Homo sapiens); construct: made in house; host or cells: baculovirus infected Sf9 cells; experiment: RIPK2 binding competition assay (TR-FRET, Tracer 199 displacement); conditions: 10 nM Tracer 199, 1 nM GST-RIPK2, read-out: RIPK2 IC50
Answer each item with its documented IC50.

Exam item: Can you share its IC50? I mean this compound: `COc1cc2ncc(-c3cc(F)nc(NCCCO)c3)n2cc1C(F)(F)F`
Marked response: 2.5 to 20 nM

Exam item: What measured IC50 goes with `COc1cc2ncc(-c3ccc4ncoc4c3)n2cc1S(=O)(=O)C(C)(C)C` ?
Marked response: > 20 nM

Exam item: Endpoint output: IC50 of `COc1cc2ncc(-c3cc(F)c(OC)c4c3cnn4CCO)n2cc1S(=O)(=O)C(C)(C)C` . Value?
Marked response: > 20 nM

Exam item: Entry `COc1cc2ncc(-c3cc(F)c(N)nc3F)n2cc1S(=O)(=O)C(C)(C)CN1CCOCC1` has what IC50?
Marked response: 2.5 to 20 nM

Exam item: # IC50 lookup, item `COc1cc2ncc(-c3cc(F)c(N)nc3F)n2cc1S(=O)(=O)N1CCOCC1`
Marked response: > 20 nM

Exam item: Could you tell me which IC50 is on file for `CC(C)(C)S(=O)(=O)c1cn2c(-c3cnc4cn[nH]c4c3)cnc2cc1OCCO` ?
Marked response: > 20 nM

Exam item: Reported IC50, compound `COc1cc2ncc(-c3cccc(NS(=O)(=O)C4COC4)c3)n2cc1S(=O)(=O)C(C)(C)C` : ____
Marked response: 2.5 to 20 nM

Exam item: Fill blank: measured IC50 of the compound `Cc1cc2cc(-c3cnc4cc(OCCO)c(S(=O)(=O)C(C)(C)C)cn34)cnc2[nH]1` is ____.
Marked response: 2.5 to 20 nM

Exam item: Please give the measured IC50 for this compound: `COc1cc2ncc(-c3cc(F)c(OC)c(NS(=O)(=O)c4ccccc4)c3)n2cc1S(=O)(=O)C(C)(C)C`
Marked response: < 1 nM

Exam item: Report IC50 for CC(C)(C)C(C)(O)c1cn2c(-c3cc(F)c(N)nc3F)cnc2cc1OCCO (single isomer, unassigned) [Example 295] please.
Marked response: 2.5 to 20 nM

Exam item: Requested field: IC50. Item: `COc1cc2ncc(-c3ccc4cnn(C)c4c3)n2cc1S(=O)(=O)C(C)(C)C`
Marked response: > 20 nM

Exam item: Could you share which IC50 value was measured for `CC(C)(C)S(=O)(=O)c1cn2c(-c3cnc4[nH]ccc4n3)cnc2cc1OCCO` ?
Marked response: 2.5 to 20 nM

Exam item: Any idea what IC50 was measured for `CC(C)(C)S(=O)(=O)c1cn2c(-c3cc(F)c(N)nc3F)cnc2cc1OCCO` ?
Marked response: 2.5 to 20 nM

Exam item: GET /values?readout=IC50&item= `COc1cc2ncc(-c3cc(F)c(N)nc3F)n2cc1S(=O)(=O)C1(C)CCNCC1`
Marked response: 2.5 to 20 nM

Exam item: Which value of IC50 has been reported for COc1cc2ncc(-c3cccc(NS(=O)(=O)C4CCOC4)c3)n2cc1S(=O)(=O)C(C)(C)C (stereo not shown) in the records?
Marked response: 2.5 to 20 nM

Exam item: Consider the compound shown here: `CC(C)(C)S(=O)(=O)c1cn2c(-c3cnc4[nH]ccc4c3)cnc2cc1OCCO` What is its recorded IC50?
Marked response: < 1 nM
